# measured_on: Peroxisome proliferator-activated receptor delta (Homo sapiens)
# measurement_description: qHTS assay to identify small molecule agonists of the peroxisome proliferator-activated receptor delta (PPARd) signaling pathway (AID 743212);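 note: HEK293H cells with PPARd UAS beta-lactamase reporter GeneBLAzer system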
# setup_conditions: HEK293H PPARd-UAS-bla, beta-lactamase FRET ratio, 17 h; series mostly up to 62.6 µM
Records with an inconclusive call do not appear. The source made the active and inactive calls. Calls come from the whole dose curve.
experimental_endpoint: outcome

A selection of reference data follows.
CCCCCCCCCC(=O)O[C@H]1CC[C@H]2[C@@H]3CCC4=CC(=O)CC[C@@H]4[C@H]3CC[C@]12C = inactive
CS/C(C)=N/OC(=O)N(C)SN(C)C(=O)O/N=C(\C)SC = inactive
CNC(C)Cc1ccccc1OC (stereo unspecified) = inactive
CCCCN(N=O)C(=N)N[N+](=O)[O-] = inactive
O=[N+]([O-])c1ccccc1CCl = inactive
COC(=O)C(Br)CBr (stereo unspecified) = inactive
CC(C)(Cl)[N+](=O)[O-] = inactive
COC(N)=O = inactive
CCOc1ccc(C(C)(C)COCc2cccc(Oc3ccccc3)c2)cc1 = inactive
Nc1nc(N)nc(N)n1 = inactive

Query string: Lab note: need outcome with Peroxisome proliferator-activated receptor delta (Homo sapiens) for entry `Cn1sc(Cl)cc1=O` , please look it up.
Result string: inactive

Query string: Lab note: need outcome with Peroxisome proliferator-activated receptor delta (Homo sapiens) for entry `Cc1ccc(N)cc1C` , please look it up.
Result string: inactive

Query string: Lab note: need outcome with Peroxisome proliferator-activated receptor delta (Homo sapiens) for entry `CC(C)N(C(=O)COc1nnc(C(F)(F)F)s1)c1ccc(F)cc1` , please look it up.
Result string: inactive

* * *

# measurement_description: A CellTox Green Cytotoxicity Assay to monitor cytotoxicity in HepG2 cells - 16 hour (AID 1224876); note: nearly all actives have a fitted effect of over 45% in size
# setup_conditions: CellTox Green fluorescence; series mostly up to 76.8 µM
Inconclusive results are not listed. The source made the active and inactive calls. The call rests on the fitted dose curve; in most records, active means well fitted activation curve with a large enough effect in the repeat runs; inconclusive means weak or mixed curves; inactive means flat fitted curve, though single readings scatter.
Your response should consist of one outcome taken from active, inactive

CCCN(CCCl)c1c([N+](=O)[O-])cc(C(F)(F)F)cc1[N+](=O)[O-] = inactive
II = active

Query string: # outcome recorded in this test, key = `OCCCBr`
Result string: inactive

Query string: # outcome recorded in this test, key = `Cl/C=C\C[N+]12CN3CN(CN(C3)C1)C2`
Result string: inactive

* * *

# measured_on: Cytochrome P450 2C19 (Homo sapiens)
# measurement_description: Cytochrome P450 Family 2 Subfamily C Member 19 (CYP2C19) small molecule antagonists: luciferase reporter qHTS assay (AID 1671197); note: nearly all actives have a fitted effect of over 65% in size
# setup_conditions: P450-Glo CYP2C19 enzyme, luciferin luminescence, 1 h; series mostly up to 115 µM
# From the text: National Center for Advancing Translational Sciences [NCATS] U.S. Environmental Protection Agency [EPA] National Institutes of Environmental Health Sciences [NIEHS] National Toxicology Program [NTP] U.S. Food and Drug Administration [FDA] Cytochrome P450 (CYP) enzymes are membrane-bound hemeproteins that play a key role in metabolism of drugs and xenobiotics. […] The luciferin products formed are detected with a luciferin detection reagent, and the amount of light produced is proportional to CYP activity. […]
Inconclusive results are not listed. Calls of active or inactive are those of the source. Calls follow the shape of the dose curve; as a rule, active = well fitted inhibition curve with a large enough effect in the repeat runs; inconclusive = weak or mixed curves; inactive = no such curve, though single readings can be large or run the other way.
Your response should consist of one outcome taken from active, inactive

CC(=O)[C@H]1CC[C@H]2[C@@H]3CC[C@H]4C[C@](C)(O)CC[C@]4(C)[C@H]3CC[C@]12C = inactive
COc1ccc(-c2ccccc2)cc1NNC(=O)OC(C)C = active
CCCCCCCCCCOC(=O)c1ccccc1C(=O)OCCCCCCCCCC = inactive
COc1nn(CSP(=S)(OC)OC)c(=O)s1 = active
ClCC(Br)CBr (stereo unspecified) = inactive
CC(Cl)Cl = inactive
C=C(C#N)CCC#N = inactive
O=C1C(=O)c2cccc3cccc1c23 = active
CO/N=C(/C(=O)OC)c1ccccc1COc1ccccc1C = active
CN(N=O)c1ccc([N+](=O)[O-])cc1 = active

Now examine the next entry.
Query string: # outcome recorded in this test, key = `C=CC(=O)OCCCCO`
Result string: inactive

* * *

# measurement_description: qHTS assay to identify small molecule agonists of the estrogen receptor beta (ER-beta) signaling pathway - cell viability counter screen (AID 1259380); note: nearly all actives have a fitted effect of over 30% in size
# setup_conditions: ER-beta-bla HEK293T viability, CellTiter-Glo luminescence, 16 h; series mostly up to 92.4 µM
Results filed as inconclusive are left out. The source made the active and inactive calls. The call rests on the fitted dose curve; in most records, active means well fitted cell-killing curve with a large enough effect in the repeat runs; inconclusive means weak or mixed curves, or effect the other way; inactive means flat fitted curve, though single readings scatter.
Your response should consist of one outcome taken from active, inactive

Examples from the recorded data:
CC(Cl)C(C)Cl (stereo not given) = inactive
O=Cc1ccc2c(c1)OCO2 = inactive
CC(=O)NC1CCSC1=O (stereo not given) = inactive
CCCCc1c(C)nc(NCC)nc1OS(=O)(=O)N(C)C = inactive
CO/N=C(/C(=O)OC)c1ccccc1COc1ccccc1C = active
CCOP(=S)(Oc1ccc([N+](=O)[O-])cc1)c1ccccc1 (stereo not given) = inactive
NS(=O)(=O)C(F)(F)C(F)(F)C(F)(F)C(F)(F)C(F)(F)C(F)(F)C(F)(F)C(F)(F)F = active
Nc1ccc([N+](=O)[O-])cc1[N+](=O)[O-] = inactive

Query string: # outcome recorded in this test, key = `CCCCN(N=O)C(=N)N[N+](=O)[O-]`
Result string: inactive

Query string: # outcome recorded in this test, key = BrCC(Br)C1CCC(Br)C(Br)C1 (stereo not given)
Result string: inactive

Query string: # outcome recorded in this test, key = `CC(C)(CCl)C(=O)Cl`
Result string: inactive

Query string: # outcome recorded in this test, key = `CCOP(=S)(OCC)Oc1cc(Cl)c(Br)cc1Cl`
Result string: inactive

Query string: # outcome recorded in this test, key = `O=C1CN=C(c2ccccc2)c2cc(Cl)ccc2N1CC1CC1`
Result string: inactive

Query string: # outcome recorded in this test, key = `C=CC(=O)OC(C)(C)C`
Result string: inactive

Query string: # outcome recorded in this test, key = `O=C(CBr)Nc1ccc(Cl)cc1C(=O)c1ccccc1F`
Result string: inactive

Query string: # outcome recorded in this test, key = `Cc1ccc2ccccc2c1`
Result string: inactive

* * *

# measured_on: Thyrotropin-releasing hormone receptor (Homo sapiens) (UniProt P34981)
# Sequence (P34981 whole entry, looked up): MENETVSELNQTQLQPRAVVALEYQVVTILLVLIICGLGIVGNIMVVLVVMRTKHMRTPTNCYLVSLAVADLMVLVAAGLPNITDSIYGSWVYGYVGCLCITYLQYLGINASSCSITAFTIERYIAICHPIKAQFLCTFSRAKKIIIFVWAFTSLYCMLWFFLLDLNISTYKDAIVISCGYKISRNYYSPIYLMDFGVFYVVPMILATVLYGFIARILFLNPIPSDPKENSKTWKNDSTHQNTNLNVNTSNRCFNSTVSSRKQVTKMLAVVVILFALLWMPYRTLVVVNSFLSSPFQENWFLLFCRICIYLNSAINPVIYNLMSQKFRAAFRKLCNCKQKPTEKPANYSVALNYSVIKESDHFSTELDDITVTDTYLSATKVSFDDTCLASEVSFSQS
# measurement_description: qHTS assay to identify small molecule antagonists of the thyrotropin-releasing hormone receptor (TRHR) signaling pathway (AID 1346877)
# setup_conditions: TRHR-HEK293, TRH-induced calcium fluorescence, antagonist mode; series mostly up to 51.3 µM
Activity calls are given as the source filed them. Calls follow the shape of the dose curve; as a rule, active = well fitted inhibition curve with a large enough effect in the repeat runs (not every such curve was filed as active); inconclusive = weak or mixed curves; inactive = flat fitted curve, though single readings scatter.
Your response should consist of one outcome taken from label 1 for active, label 0 for inactive

Examples from the recorded data:
C[C@]12CC[C@H]3[C@@H](CCC4=CC(=O)CC[C@@H]43)[C@@H]1CC[C@@H]2OC(=O)CCC1CCCCC1 = label 0
COP(=O)(OC)O/C(=C/Cl)c1cc(Cl)c(Cl)cc1Cl = label 0
C/C(=C\c1ccccc1)[N+](=O)[O-] = label 0
Sc1ccccc1Cl = label 0
IC(I)=C(I)I = label 1
O=C(O)C(F)(F)C(F)(F)C(F)(F)C(F)(F)C(F)(F)C(F)(F)C(F)(F)C(F)(F)C(F)(F)C(F)(F)F = label 0

Query string: # outcome recorded in this test, key = CNC(C)Cc1ccccc1OC (stereo not given)
Result string: label 0

Query string: # outcome recorded in this test, key = CCOP(=S)(Oc1ccc([N+](=O)[O-])cc1)c1ccccc1 (stereo not given)
Result string: label 0

Query string: # outcome recorded in this test, key = `O=Cc1ccc(Cl)cc1Cl`
Result string: label 0

Query string: # outcome recorded in this test, key = `O=C1NCN(c2ccccc2)C12CCN(CCCOc1ccc(F)cc1)CC2`
Result string: label 1

Query string: # outcome recorded in this test, key = `COc1nn(C(=O)NS(=O)(=O)c2ccccc2OC(F)(F)F)c(=O)n1C`
Result string: label 0

* * *

# measurement_description: A CellTox Green Cytotoxicity Assay to monitor cytotoxicity in HEK293 cells - 24 hour (AID 1224875); note: nearly all actives have a fitted effect of over 45% in size
# setup_conditions: CellTox Green fluorescence; series mostly up to 76.8 µM
# Text: National Center for Advancing Translational Sciences [NCATS] NIH Chemical Genomics Center [NCGC] U.S. Environmental Protection Agency [EPA] National Institutes of Environmental Health Sciences [NIEHS] National Toxicology Program [NTP] Cell-based models are critical for drug discovery. […] Viable cells produce no appreciable increases in fluorescence. Therefore, the fluorescence signal produced by the binding interaction with dead cell DNA is proportional to cytotoxicity. […]
Records with an inconclusive call do not appear. Active and inactive are the calls of the source. The call rests on the fitted dose curve; in most records, active means well fitted activation curve with a large enough effect in the repeat runs; inconclusive means weak or mixed curves; inactive means flat fitted curve, though single readings scatter.
experimental_endpoint: outcome

CC(c1ccc(O)cc1)(c1ccc(O)cc1)c1ccc(O)cc1 = inactive
CC(Cl)Cl = inactive
CCOC(=O)COc1cc(-c2nn(C)c(OC(F)F)c2Cl)c(F)cc1Cl = inactive
CN1C[C@H](CNC(=O)OCc2ccccc2)C[C@@H]2c3cccc4c3c(cn4C)C[C@H]21 = inactive
CCO[C@H]1O[C@@H]2OC3(C)CC[C@H]4[C@H](C)CC[C@@H]([C@H]1C)[C@@]24OO3 = inactive

Query string: Requested field: outcome. Item: `CC(C)O.CC(C)O.OCCN(CCO)CCO.OCCN(CCO)CCO.[Ti]`
Result string: inactive

Query string: Requested field: outcome. Item: CCOP(=S)(Oc1ccc([N+](=O)[O-])cc1)c1ccccc1 (stereo unspecified)
Result string: inactive

Query string: Requested field: outcome. Item: `CCCCN(N=O)C(=N)N[N+](=O)[O-]`
Result string: inactive
